Where do the numbers come from? From patent US7511144B2.

- Study target: Human MMP13 (Homo sapiens)
- Construct: purchased Chemicon CC068
- Assay summary: MMP13 inhibition experiment
- Type: biochemical
- Assay conditions: concentration required for 50% inhibition of enzyme activity; read-out: IC50 value MMP-13
Measured metric: pIC50
Give bare numbers, as −log10 of the molar value.

Here is how some compounds turned out for pIC50.
Compound	Measured metric	Recorded number
Cc1cc(COc2ccc(S(=O)(=O)CC(N(O)C=O)C3(C)CCC(=O)CC3)cc2)c2ccccc2n1 (centres unmarked)	pIC50	4.30
Cc1cc(COc2ccc(S(=O)(=O)CC(CC3CCOCC3)N(O)C=O)cc2)c2ccccc2n1 (centres unmarked)	pIC50	4.74
C=C1CCC(C(CS(=O)(=O)c2ccc(OCc3cc(C)cc(OC)c3)cc2)N(O)C=O)CC1 (centres unmarked)	pIC50	5.00

# input for lookup
Ask: Which pIC50 reading was recorded for the compound Cc1ccc(C(C)(CS(=O)(=O)c2ccc(OCc3cc(C)nc4ccccc34)cc2)N(O)C=O)cc1 (centres unmarked) ?
Reply: 4.48

====

- Study target: TACE (Homo sapiens, UniProt P78536)
- Construct: made in house; host or cells: mammalian cells or insect cells
- Sequence (P78536 215-824): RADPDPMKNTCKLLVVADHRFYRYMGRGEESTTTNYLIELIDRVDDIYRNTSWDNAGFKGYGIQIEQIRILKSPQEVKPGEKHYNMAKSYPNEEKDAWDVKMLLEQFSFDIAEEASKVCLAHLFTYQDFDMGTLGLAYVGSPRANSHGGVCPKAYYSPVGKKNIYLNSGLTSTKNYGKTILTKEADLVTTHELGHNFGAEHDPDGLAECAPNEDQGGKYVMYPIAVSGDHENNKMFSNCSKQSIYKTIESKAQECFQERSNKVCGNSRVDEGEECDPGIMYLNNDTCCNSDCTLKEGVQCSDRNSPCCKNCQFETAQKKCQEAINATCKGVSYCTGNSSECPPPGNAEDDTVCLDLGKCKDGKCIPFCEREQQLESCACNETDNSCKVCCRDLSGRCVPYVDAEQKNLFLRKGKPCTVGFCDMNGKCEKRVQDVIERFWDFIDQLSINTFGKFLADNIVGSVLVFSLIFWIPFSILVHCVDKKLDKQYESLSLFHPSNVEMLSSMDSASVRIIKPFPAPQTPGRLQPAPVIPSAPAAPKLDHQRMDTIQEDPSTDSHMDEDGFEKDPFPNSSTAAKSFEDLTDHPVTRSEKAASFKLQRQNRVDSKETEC
- Assay summary: TACE inhibition experiment (in vitro)
- Format: biochemical
Measured metric: pIC50
One number for each entry, as −log10 of the molar value.

Here is how some compounds turned out for pIC50.
Compound	Measured metric	Recorded number
C=C1CCC(C(CS(=O)(=O)c2ccc(OCc3cc(C)cc(OC)c3)cc2)N(O)C=O)CC1 (stereo not drawn)	pIC50	6.70
Cc1cc(COc2ccc(S(=O)(=O)CC(N(O)C=O)C3(C)CCOCC3)cc2)c2ccccc2n1 (stereo not drawn)	pIC50	8.08

--- query ---
Ask: // returns reported pIC50 for input CCC(CC)CN1CCC(CC(CS(=O)(=O)c2ccc(OCc3cc(C)nc4ccccc34)cc2)N(O)C=O)CC1 (stereo not drawn)
Reply: 7.70

====

- Study target: UniProtKB P22894
- Sequence (P22894 101-467): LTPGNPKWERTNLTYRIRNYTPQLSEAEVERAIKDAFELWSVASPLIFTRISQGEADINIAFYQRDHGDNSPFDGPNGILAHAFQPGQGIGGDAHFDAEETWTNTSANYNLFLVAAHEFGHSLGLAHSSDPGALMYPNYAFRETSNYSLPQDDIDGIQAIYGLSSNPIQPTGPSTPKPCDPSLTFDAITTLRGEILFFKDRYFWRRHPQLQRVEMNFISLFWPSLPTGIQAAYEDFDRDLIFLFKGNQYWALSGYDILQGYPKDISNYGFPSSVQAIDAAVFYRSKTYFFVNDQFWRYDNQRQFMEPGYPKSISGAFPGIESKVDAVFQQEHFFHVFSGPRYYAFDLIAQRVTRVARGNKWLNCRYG
pIC50: −log10 of the molar value.
Measured metric: pIC50

Worked cases, pIC50 given:
Compound	Study target	pIC50
Cc1cccc(C(CS(=O)(=O)c2ccc(OCc3cc(C)nc4ccc(F)cc34)cc2)N(O)C=O)n1 (stereo not shown) [Example I-149]	UniProtKB P22894	< 4.00
O=CN(O)C(C=C1CCC(=NO)CC1)CS(=O)(=O)c1ccc(OCc2ccc3ccccc3n2)cc1 (stereo not shown) [Example I-86]	UniProtKB P22894	< 4.00
Cc1cc(COc2ccc(S(=O)(=O)CC(C=C3CCSCC3)N(O)C=O)cc2)c2ccccc2n1 (stereo not shown) [Example I-17]	UniProtKB P22894	< 4.00

Ask: I have this compound here, Cc1ccc2nc(C)cc(COc3ccc(S(=O)(=O)CC(c4ccccc4C)N(O)C=O)cc3)c2c1 (stereo not shown) [Example I-77] , and I need its recorded pIC50.
Reply: < 4.00

====

- Study target: Human MMP13 (Homo sapiens)
- Construct: purchased Chemicon CC068
- Assay summary: MMP13 inhibition experiment
- Format: biochemical
- Assay conditions: concentration required for 50% inhibition of enzyme activity; read-out: IC50 value MMP-13
Would you mind telling me the reported pIC50 of each entry?
One number for each entry, as −log10 of the molar value.

Worked cases, answers included:
Compound	pIC50
COCc1cc(COc2ccc(S(=O)(=O)CC(C=C3CCC(=NO)CC3)N(O)C=O)cc2)cc(C)n1 (centres unmarked)	4.21
Cc1cc(COc2ccc(S(=O)(=O)CC(C=C3CCOCC3)N(O)C=O)cc2)cc(C)n1 (centres unmarked)	5.10
Cc1cc(COc2ccc(S(=O)(=O)CC(CC3CCC(=O)CC3)N(O)C=O)cc2)c2ccccc2n1 (centres unmarked)	5.22
Cc1cc(Cl)cc(COc2ccc(S(=O)(=O)CC(C=C3CCC(=NO)CC3)N(O)C=O)cc2)c1 (centres unmarked)	4.80
CCC(CC)C(=O)N1CCC(=CC(CS(=O)(=O)c2ccc(OCc3cc(C)nc4ccccc34)cc2)N(O)C=O)C(C)C1 (centres unmarked)	4.49
Cc1cc(COc2ccc(S(=O)(=O)CC(CCc3cccnc3)N(O)C=O)cc2)c2ccccc2n1 (centres unmarked)	5.19

Provide each entry's pIC50 from the list below.
1. C=C1CCC(C(CS(=O)(=O)c2ccc(OCc3cc(C)cc(C)c3)cc2)N(O)C=O)CC1 (centres unmarked)
2. CCC(CC)C(=O)N1CCC(C(CS(=O)(=O)c2ccc(OCc3cc(C)nc4ccccc34)cc2)N(O)C=O)CC1 (centres unmarked)
3. Cc1cc(COc2ccc(S(=O)(=O)CC(C(F)=C3CCOCC3)N(O)C=O)cc2)c2ccccc2n1 (centres unmarked)
4. Cc1cc(COc2ccc(S(=O)(=O)CC(C3CCOCC3)N(O)C=O)cc2)c2ccccc2n1 (centres unmarked)
5. Cc1cc(COc2ccc(S(=O)(=O)CC(N(O)C=O)C3(C)CCC(O)CC3)cc2)c2ccccc2n1 (centres unmarked)
6. Cc1cc(COc2ccc(S(=O)(=O)CC(C=C3CCN(C(=O)c4ccccc4)CC3)N(O)C=O)cc2)c2ccccc2n1 (centres unmarked)
7. Cc1cccc(CCC(CS(=O)(=O)c2ccc(OCc3cc(C)nc4ccccc34)cc2)N(O)C=O)c1 (centres unmarked)

Reply:
1. 5.00
2. 5.66
3. 4.40
4. 4.52
5. 4.30
6. 6.22
7. 4.59

====

Hi there, I'd appreciate the recorded IC50 for every entry that follows.
- Study target: Human MMP13 (Homo sapiens, UniProt P45452)
- Construct: purchased Chemicon CC068
- Assay summary: MMP13 inhibition experiment
- Type: biochemical
- Assay conditions: concentration required for 50% inhibition of enzyme activity; read-out: IC50 value MMP-13
Give bare numbers, in µM.

Compound	Recorded number
Cc1ccc2nc(C)cc(COc3ccc(S(=O)(=O)CC(c4ccccc4C)N(O)C=O)cc3)c2c1 (stereo not shown)	28
C=C1CCC(C(CS(=O)(=O)c2ccc(OCc3cc(C)nc(C)c3)cc2)N(O)C=O)CC1 (stereo not shown)	2.5

Ask: Could you share which IC50 value was measured for Cc1cc(COc2ccc(S(=O)(=O)CC(C=C3CCSCC3)N(O)C=O)cc2)c2ccccc2n1 (stereo not shown) ?
Reply: 25
